Field: Ra. Provide a value for each of the molecules that follow.
assay: Hansen solubility parameters (HSP), δ difference and HSP distance Ra; conditions: HSP distance between solvent and rhodamine B

Use these answered entries as a reference point.
- CCOCC: 20.633 (MPa)^1/2
- CCOCCOCCO: 10.489 (MPa)^1/2
- CN1CCCC1=O: 12.708 (MPa)^1/2
- CCCCCCCCO: 14.205 (MPa)^1/2

# evaluate next
Exercise: Query Ra for CC(C)=O
Key: 13.727 (MPa)^1/2

====

assay: Hansen solubility parameters (HSP), δ difference and HSP distance Ra; settings: total δ of solvent minus total δ of pyrene
QUANTITY NAME: δ difference

Use these answered entries as a reference point.
* CCOCC [Ether] | −7.423 (MPa)^1/2
* CC(C)=O [Acetone] | −2.974 (MPa)^1/2

Provide δ difference for all items below, preserving their order.
1. CN1CCCC1=O [N-methylpyrrolidone (NMP), N-methylpyrrolidone]
2. CCOCCOCCO [Diethylene glycol monoethyl ether (DGME), Diethylene glycol monoethyl ether]

Key:
1. 0.050 (MPa)^1/2
2. −0.712 (MPa)^1/2

====

assay: Hansen solubility parameters (HSP), δ difference and HSP distance Ra; conditions: HSP distance between solvent and pyrene
QUANTITY NAME: Ra

• CN1CCCC1=O = 14.343 (MPa)^1/2
• CC(C)=O = 16.806 (MPa)^1/2
• CCOCC = 16.064 (MPa)^1/2

# evaluate next
Exercise: Query Ra for CCOCCOCCO
Key: 16.995 (MPa)^1/2

====

assay: cmc determination with probe solutions in NMP, fluorescence spectrophotometer; assay type: physicochemical; conditions: Supreme Brilliant White washing water with fluorescent brightener; probe dissolved in NMP
Field: cmc value range. Provide a value for each of the compounds that follow.

Use these answered entries as a reference point.
* CCN(CC)c1ccc2nc3c4ccccc4c(=O)cc-3oc2c1 [NR, Nile red] | 0.2 to 0.3 g/L
* CCN(CC)c1ccc2c(-c3ccccc3C(=O)O)c3ccc(=[N+](CC)CC)cc-3oc2c1 [RhB, rhodamine B, reference compound] | 0.3 to 1 g/L
* c1cc2ccc3cccc4ccc(c1)c2c34 [PYR, pyrene, reference compound] | 0.03 to 0.1 g/L
* Cc1cc(=O)oc2c3c4c(cc12)CCCN4CCC3 [C480, coumarin 480] | 0.3 to 1 g/L

Exercise: Query cmc value range for COc1cc(/C=C/C(=O)CC(=O)/C=C/c2ccc(O)c(OC)c2)ccc1O [CUR, curcumin]
Key: 0.2 to 0.3 g/L

====

Experiment: cmc by surface tension method
Type: physicochemical
Settings: NMP without probe, solvent content 0.4%
Excerpt: Based on the above speculation, the inventors also observed the change in the cmc value at different addition amounts of the NMP solvent (without the probe) used in the CUR-NMP probe solution using the surface tension method. When the addition amount of NMP is less than 1000, the cmc value determined is affected to some extent, but the effect is small. […]
QUANTITY NAME: cmc (g/L)
Answers are plain numbers, in g/L.

Exercise: Query cmc for CN1CCCC1=O
Key: 0.076

====

assay: cmc by surface tension method; format: physicochemical; settings: NMP without probe, solvent content 2%
QUANTITY NAME: cmc (g/L)
One number for each entry, in g/L.

Exercise: Query cmc for CN1CCCC1=O
Key: 0.101
